tested on: L1210 leukemia ip in BDF1 mice, survival T/C; experiment: NCI In Vivo Anticancer Drug Screen. Data for tumor model L1210 Leukemia (intraperitoneal) in B6D2F1 (BDF1) mice; settings: endpoint: mean survival time; dose: 50.0 mg/kg/injection; schedule: Q04DX002 (ip); vehicle: saline; higher = longer survival
Toxic doses and inconclusive results are not listed.

COMPOUND: COC1=CC23CCN(C)C(CCc4cc(OC)c(OC)c(OC)c42)C3=CC1=O (centres undefined)
T/C: 108 % of control
//
COMPOUND: CC(=O)NC1C(NC(=O)CC(NC(=O)OCc2ccccc2)C(=O)O)OC(COC(C)=O)C(OC(C)=O)C1OC(C)=O (centres undefined)
T/C: 91 % of control
//
COMPOUND: CCCCCCNCCC[P+](c1ccccc1)(c1ccccc1)c1ccccc1
T/C: 98 % of control
//
COMPOUND: C=C1CC(CCCCCC2CC(=C)C(=O)O2)OC1=O (centres undefined)
T/C: 102 % of control

* * *

test system: L1210 leukemia ip in BDF1 mice, survival T/C; experiment: NCI In Vivo Anticancer Drug Screen. Data for tumor model L1210 Leukemia (intraperitoneal) in B6D2F1 (BDF1) mice; conditions: endpoint: mean survival time; dose: 100.0 mg/kg/injection; schedule: Q01DX009 (ip); vehicle: Klucel (hydroxypropylcellulose) (HPC); higher = longer survival
Toxic doses and inconclusive results are not listed.
Collected T/C values appear next to each entry.
PROPERTY: T/C

COMPOUND: C#CCCCCC#C
PROPERTY: T/C
OBSERVED_VALUE: 106 % of control
--
COMPOUND: COc1ccc(Cl)cc1NC(=O)N1CCN(c2ccccc2)CC1
PROPERTY: T/C
OBSERVED_VALUE: 120 % of control
--
COMPOUND: Cc1ncc(Br)c(C(=O)O)n1
PROPERTY: T/C
OBSERVED_VALUE: 106 % of control
--
COMPOUND: CNc1ncc2nc(C)c(=O)n(C)c2n1
PROPERTY: T/C
OBSERVED_VALUE: 95 % of control
--
COMPOUND: O=C(c1ccccc1)C1(Br)CCCCC1
PROPERTY: T/C
OBSERVED_VALUE: 96 % of control
--
COMPOUND: COc1ccc2c3c(ccc2c1)C(=O)/C(=C\O)CC3
PROPERTY: T/C
OBSERVED_VALUE: 88 % of control
--
COMPOUND: CCc1ccc(NC(=O)Nc2cccc(Cl)c2)cc1
PROPERTY: T/C
OBSERVED_VALUE: 92 % of control
--
COMPOUND: CC(C)(C)NC(=O)Oc1ccccc1C(N)=O
PROPERTY: T/C
OBSERVED_VALUE: 95 % of control
--
COMPOUND: S=c1[nH]c(=S)c2[nH]c(=S)[nH]c2[nH]1
PROPERTY: T/C
OBSERVED_VALUE: 91 % of control
--
COMPOUND: Cc1cccc(C)c1NC(=O)Nc1cccc(O)c1
PROPERTY: T/C
OBSERVED_VALUE: 101 % of control
--
COMPOUND: O=C(O)COc1cc(F)c(Cl)cc1Cl
PROPERTY: T/C
OBSERVED_VALUE: 100 % of control
--
COMPOUND: O=C(/C=C/C(=O)Oc1ccc(Cl)cc1Cl)Oc1ccc(Cl)cc1Cl
PROPERTY: T/C
OBSERVED_VALUE: 94 % of control
--
COMPOUND: CCCCCCCCCC(C)NC(=O)CCl (stereo unspecified)
PROPERTY: T/C
OBSERVED_VALUE: 97 % of control
--
COMPOUND: CN(C)C(=O)Sc1ccc(S(=O)(=O)F)cc1[N+](=O)[O-]
PROPERTY: T/C
OBSERVED_VALUE: 110 % of control
--
COMPOUND: CCOC(=O)c1cnc(SC)nc1Nc1cccc(Br)c1
PROPERTY: T/C
OBSERVED_VALUE: 91 % of control
--
COMPOUND: COc1ccccc1C(=O)C(O)c1ccccc1OC (stereo unspecified)
PROPERTY: T/C
OBSERVED_VALUE: 101 % of control
--
COMPOUND: C(=Nc1ccccc1)c1ccccc1B1Oc2ccccc2O1
PROPERTY: T/C
OBSERVED_VALUE: 100 % of control
--
COMPOUND: O=C(Nc1ccc(Cl)cc1)Nc1cccc(F)c1
PROPERTY: T/C
OBSERVED_VALUE: 90 % of control
--
COMPOUND: O=C1OC(=O)C(=C(c2ccccc2)c2ccccc2)C1=C(c1ccccc1)c1ccccc1
PROPERTY: T/C
OBSERVED_VALUE: 101 % of control
--
COMPOUND: O=C(O)c1cc(O)cc(O)c1
PROPERTY: T/C
OBSERVED_VALUE: 100 % of control
--
COMPOUND: O=[N+]([O-])c1ccc(O)c(C2N(Cc3ccc(N(CCCl)CCCl)cc3)CCCN2Cc2ccc(N(CCCl)CCCl)cc2)c1
PROPERTY: T/C
OBSERVED_VALUE: 93 % of control
--
COMPOUND: N#CCN(CC#N)CCN(CC#N)CC#N
PROPERTY: T/C
OBSERVED_VALUE: 95 % of control
--
COMPOUND: Cc1cc(Cl)ccc1NC(=O)c1cccc(C(=O)Nc2ccc(Cl)cc2C)c1
PROPERTY: T/C
OBSERVED_VALUE: 97 % of control
--
COMPOUND: COC(=O)c1ccccc1NC(=O)c1cccc(F)c1
PROPERTY: T/C
OBSERVED_VALUE: 95 % of control
--
COMPOUND: COc1ccc(/C(=N/Nc2ccccc2)C(C)C(O)(C(F)(F)F)C(F)(F)F)cc1 (stereo unspecified)
PROPERTY: T/C
OBSERVED_VALUE: 92 % of control
--
COMPOUND: CCOc1ccc(NC(=O)c2cccc(C(=O)Nc3ccc(OCC)cc3)c2)cc1
PROPERTY: T/C
OBSERVED_VALUE: 104 % of control

* * *

system: L1210 leukemia ip in BDF1 mice, survival T/C; test: NCI In Vivo Anticancer Drug Screen. Data for tumor model L1210 Leukemia (intraperitoneal) in B6D2F1 (BDF1) mice; conditions: endpoint: mean survival time; dose: 100.0 mg/kg/injection; schedule: Q04DX002 (ip); vehicle: Klucel (hydroxypropylcellulose) (HPC); higher = longer survival
Inconclusive results and toxic doses are left out.

COMPOUND: CC1CCN(C(=O)Nc2ccccc2)CC1
T/C: 98 % of control
--
COMPOUND: O=C1/C(=C\c2cccc3ccccc23)N2CCC1CC2
T/C: 100 % of control
--
COMPOUND: COC(=O)N(CCCCN(N=O)C(=O)OC)N=O
T/C: 101 % of control
--
COMPOUND: O=C(Nc1ccccc1)/C(Cl)=C/O
T/C: 91 % of control
--
COMPOUND: CN=C(N)C(C)SS(=O)(=O)O (configuration not stated)
T/C: 92 % of control
--
COMPOUND: CCc1nc(N[N+](=O)[O-])nc(-c2ccccc2)c1-c1ccccc1O
T/C: 107 % of control
--
COMPOUND: C(=C\CSc1ccccc1)/CSc1ccccc1
T/C: 97 % of control
--
COMPOUND: CC1=CC(C)(C)NC(=S)N1CCO
T/C: 104 % of control
--
COMPOUND: Nc1ccc2c(c1)oc1ccccc12
T/C: 107 % of control
--
COMPOUND: CC(=O)N1Cc2ccc(/C=C(/C#N)C(N)=O)n2Cc2cc3c(cc21)OCO3
T/C: 91 % of control
--
COMPOUND: O=C1c2cccc3cccc(c23)C(=O)N1CCCN1C(=O)c2cccc3cccc(c23)C1=O
T/C: 88 % of control
--
COMPOUND: Cc1cccc(C)c1OC(=O)Nc1ccccc1
T/C: 101 % of control

* * *

system: L1210 leukemia ip in BDF1 mice, survival T/C; experiment: NCI In Vivo Anticancer Drug Screen. Data for tumor model L1210 Leukemia (intraperitoneal) in B6D2F1 (BDF1) mice; settings: endpoint: mean survival time; dose: 400.0 mg/kg/injection; schedule: Q01DX009 (ip); vehicle: Klucel (hydroxypropylcellulose) (HPC); higher = longer survival
Inconclusive results and toxic doses are left out.

MOLECULE: COc1cc(C(=O)Nc2ccccc2F)cc(OC)c1OC
T/C: 97 % of control

MOLECULE: COc1ccc(COC(=O)Nc2ccc(Br)cc2)c(OC)c1
T/C: 101 % of control

MOLECULE: CC(=O)CN1C(=O)c2ccccc2C1=O
T/C: 105 % of control

MOLECULE: COc1ccc(Br)c(CCC(C)C)c1OC
T/C: 101 % of control

MOLECULE: Cc1cccc(Cl)c1NC(=O)c1cccc([N+](=O)[O-])c1
T/C: 93 % of control

MOLECULE: Cc1ccc(NC(=O)SCc2ccccc2)c([N+](=O)[O-])c1
T/C: 93 % of control

MOLECULE: COc1cc(OC)c(OC)cc1/C=C\c1ccnc2ccccc12
T/C: 114 % of control

MOLECULE: O=C(/C=C/c1ccc2c(c1)OCO2)c1ccc2c(c1)OCO2
T/C: 100 % of control

MOLECULE: O=C(Nc1ccc(Nc2ccccc2)cc1)Nc1cccc2ccccc12
T/C: 100 % of control

MOLECULE: CCCCNC(=O)Nc1ccc(CC)cc1
T/C: 96 % of control

MOLECULE: COc1ccccc1C(=O)C(O)c1ccccc1OC (configuration not stated)
T/C: 101 % of control

MOLECULE: COc1ccccc1NC(=O)c1ccc(Cl)cc1Cl
T/C: 93 % of control
